# TESTED ON: hMC5-R (Homo sapiens, UniProt P33032)
# Construct: expressed in transfected cells; host or cells: CHO-K1
# Sequence (P33032 whole entry): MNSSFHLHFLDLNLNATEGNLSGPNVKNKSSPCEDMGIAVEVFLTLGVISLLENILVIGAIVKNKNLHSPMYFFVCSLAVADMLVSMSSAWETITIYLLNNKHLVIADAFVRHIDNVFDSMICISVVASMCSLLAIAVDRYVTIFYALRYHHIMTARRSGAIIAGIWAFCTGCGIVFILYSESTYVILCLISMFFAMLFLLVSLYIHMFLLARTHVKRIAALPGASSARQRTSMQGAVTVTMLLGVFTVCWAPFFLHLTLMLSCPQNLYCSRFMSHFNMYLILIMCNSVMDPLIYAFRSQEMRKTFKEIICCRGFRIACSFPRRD
# ASSAY NAME: Radioligand binding assay, [125I]-NDP-α-MSH competition, CHO-K1 membranes
# CONDITION: Table 5; read-out: Ki hMC5-R
Bridge positions count the residues as written; N and C are the ends. Square brackets hold non-standard residues; d marks the D form. Peptide text beside a SMILES is read from it. Pen = CC(C)(S)[C@H](N)C(=O)O; Nle = CCCC[C@H](N)C(=O)O; GABA = NCCCC(=O)O; βAla = NCCC(=O)O
ASSAY METRIC: pKi
By convention, pKi is the negative base-10 log of a molar concentration.

Below are worked cases with known answers.
CCOc1ccc(C[C@H]2NC(=O)[C@H](Cc3c[nH]cn3)NC(=O)[C@@H](NC(=O)[C@H](N)Cc3ccccc3)CSSC[C@H](C(=O)N[C@H](C(N)=O)[C@@H](C)O)NC(=O)CCNC(=O)[C@H](Cc3c[nH]c4ccccc34)NC(=O)[C@H](CCCNC(=N)N)NC2=O)cc1 (H-[dF]CH[dY](Et)RW[βAla][dC]T-NH2; disulfide 2-8) = 8.54
CCCC[C@H](NC(C)=O)C(=O)N[C@@H]1C(=O)N[C@@H](Cc2c[nH]cn2)C(=O)N[C@H](Cc2ccccc2)C(=O)N[C@@H](CCCNC(=N)N)C(=O)N[C@@H](Cc2c[nH]c3ccccc23)C(=O)NCCCC(=O)N[C@H](C(N)=O)CSSC1(C)C (Ac-[Nle][Pen]H[dF]RW[GABA]C-NH2; disulfide 2-8 (inferred)) = 8.59

Next up:
Task: Need pKi, item "CCCC[C@H](NC(C)=O)C(=O)N[C@H]1CSSC[C@@H](C(N)=O)NC(=O)[C@H](Cc2c[nH]c3ccccc23)NC(=O)[C@H](CCCNC(=N)N)NC(=O)[C@@H](Cc2ccccc2)NC(=O)[C@H](Cc2c[nH]cn2)NC(=O)[C@@H](C(C)(C)C)NC1=O"
Output: 7.40
